- assayed.system: UniProt:Q13255
- Sequence (Q13255 whole entry): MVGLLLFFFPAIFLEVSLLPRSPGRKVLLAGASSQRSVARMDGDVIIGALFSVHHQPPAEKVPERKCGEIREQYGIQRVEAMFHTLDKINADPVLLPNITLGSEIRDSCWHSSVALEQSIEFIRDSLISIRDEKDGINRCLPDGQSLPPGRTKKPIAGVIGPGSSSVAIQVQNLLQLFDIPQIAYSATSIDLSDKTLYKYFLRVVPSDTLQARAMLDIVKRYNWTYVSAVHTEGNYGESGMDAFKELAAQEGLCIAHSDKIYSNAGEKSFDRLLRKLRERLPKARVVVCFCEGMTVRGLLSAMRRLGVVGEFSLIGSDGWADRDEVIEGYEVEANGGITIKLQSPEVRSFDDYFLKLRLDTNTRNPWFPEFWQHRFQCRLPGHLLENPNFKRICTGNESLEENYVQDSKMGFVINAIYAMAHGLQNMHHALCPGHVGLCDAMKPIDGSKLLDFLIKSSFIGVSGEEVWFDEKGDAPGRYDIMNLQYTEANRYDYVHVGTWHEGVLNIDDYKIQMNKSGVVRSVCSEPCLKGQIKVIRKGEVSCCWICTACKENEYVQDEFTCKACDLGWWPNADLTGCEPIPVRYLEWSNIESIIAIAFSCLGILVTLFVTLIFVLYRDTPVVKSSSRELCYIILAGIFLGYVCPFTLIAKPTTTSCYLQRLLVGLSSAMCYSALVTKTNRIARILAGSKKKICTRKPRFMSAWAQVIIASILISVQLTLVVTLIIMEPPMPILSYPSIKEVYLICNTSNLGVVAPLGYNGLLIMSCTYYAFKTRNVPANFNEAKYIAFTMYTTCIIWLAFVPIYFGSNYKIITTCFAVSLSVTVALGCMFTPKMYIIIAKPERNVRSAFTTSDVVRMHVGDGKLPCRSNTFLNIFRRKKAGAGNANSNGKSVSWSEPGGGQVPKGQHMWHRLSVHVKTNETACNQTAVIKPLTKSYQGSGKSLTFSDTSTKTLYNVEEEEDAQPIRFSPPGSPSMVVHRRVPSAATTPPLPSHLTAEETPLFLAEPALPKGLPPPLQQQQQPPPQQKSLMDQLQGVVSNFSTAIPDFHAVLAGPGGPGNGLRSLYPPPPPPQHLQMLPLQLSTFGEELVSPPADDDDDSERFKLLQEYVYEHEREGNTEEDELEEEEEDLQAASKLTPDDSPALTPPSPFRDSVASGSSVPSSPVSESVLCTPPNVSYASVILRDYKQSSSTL
- test: Negative allosteric modulation of human mGlu1 receptor expressed in HEK293A TREx cells assessed as calcium flux after 45 mins
pIC50: −log10 of the molar value.
assay.endpoint: pIC50

>  <compound.string>
CC(C)(C)CC(=O)N1C[C@@H]2CN(c3ccccn3)C[C@@H]2C1

>  <pIC50>
< 4.50

$$$$

Turning now to a further record.
Look at this compound and give its reported pIC50. `CC(C)(C)C(=O)N1C[C@@H]2CN(c3ccccn3)C[C@@H]2C1`
< 4.50
